# Tested on: anaesthetized rabbits
# assayDetails: Reinfusion ischemia in anaesthetized rabbits (iv)
# Assay type: in vivo, rabbit
# testSettings: 0.16 mg/kg iv
// 0 strictly below 80% in % inhibition ST segment; 1 otherwise

Q: Could you tell me if the measured % inhibition ST segment of CN(C1=Nc2ccccc2CS1)C1CCN(CC(O)COc2ccc(F)cc2)CC1.Cl.Cl (stereo not shown) reaches 80% or more?
Ans: 1

Q: Form field: % inhibition ST segment at least 80%? Entry: CN(C1=Nc2ccccc2CS1)C1CCN(CCCCOc2ccc(F)c(F)c2)CC1
Ans: 0

Q: Would you say CN(C1=Nc2ccccc2CS1)C1CCN(CCCCOc2ccc(F)cc2)CC1.O=C(O)/C=C\C(=O)O shows % inhibition ST segment at minimum 80%?
Ans: 0

Q: Determine whether this compound has % inhibition ST segment no lower than 80%: CN(C1=Nc2ccccc2CS1)C1CCN(CCCOc2ccc(F)cc2)CC1.O=C(O)/C=C\C(=O)O
Ans: 0

Q: API: above_or_equal(metric=% inhibition ST segment, cutoff=80%) for item COc1ccc([C@@H]2Sc3ccccc3N(CCN(C)C)C(=O)[C@@H]2OC(C)=O)cc1 [Diltiazem, reference compound]
Ans: 0

Q: Assess whether reported % inhibition ST segment for CC(C)NCC(O)COc1ccc(CC(N)=O)cc1 (stereo not shown) [Atenolol, reference compound] sits at 80% or higher.
Ans: 0

Q: Please tell me: is the compound CN(c1nc2ccccc2s1)C1CCN(CC(O)COc2ccc(F)cc2)CC1 (stereo not shown) [Sabeluzole, reference compound] at or over 80% in terms of % inhibition ST segment?
Ans: 1
